// values below are reported CD4 or CD8 dependency
tested on: T cells in PBMC of H1N1 (A/Brisbane/59/07) challenge study subjects; type: cell-based, human; conditions: baseline samples; second ELISPOT after CD8 depletion; 4 = CD4, 8 = CD8

INPUT SEQUENCE	CD4 or CD8 dependency
VKLYRKLKREITFHGAKE (Influenza A virus) [Peptide M13, synthetic peptide of H1N1 influenza A M protein, amino acid position 97-114]	4
QPTFSVQRNLPFDKTTIM [NP52]	4
IAYERMCNILKGKFQTAA (Influenza A virus) [NP28, synthetic peptide of H1N1 influenza A NP protein, amino acid position 217-234]	8
GENGRKTRIAYERMCNIL [NP27]	8
RMVLSAFDERRNKYLEEH (Influenza A virus) [NP09, synthetic peptide of H1N1 influenza A NP protein, amino acid position 65-82]	4

---

tested on: T cells in PBMC of H1N1 (A/Brisbane/59/07) challenge study subjects; type: cell-based, human
PARAMETER MEASURED: SFC/million PBMC, days after challenge 28 (SFC/million PBMC)

INPUT SEQUENCE	TEST RESULT
IAYERMCNILKGKFQTAA (Influenza A virus) [NP28, synthetic peptide of H1N1 influenza A NP protein, amino acid position 217-234]	10
RMVLSAFDERRNKYLEEH (Influenza A virus) [NP09, synthetic peptide of H1N1 influenza A NP protein, amino acid position 65-82]	113
GENGRKTRIAYERMCNIL [NP27]	10
VKLYRKLKREITFHGAKE (Influenza A virus) [Peptide M13, synthetic peptide of H1N1 influenza A M protein, amino acid position 97-114]	10

---

system: T cells in PBMC of H3N2 (A/Wisconsin/67/05) challenge study subjects; type: cell-based, human; conditions: baseline samples; second ELISPOT after CD8 depletion; 4 = CD4, 8 = CD8

INPUT SEQUENCE	CD4 or CD8 dependency
HRSHRQMVATTNPLIKH [Peptide M23]	4
LKREITFHKAKEIALSY [Peptide M15]	4
KFQTAAQRAMVDQVRESR (Influenza A virus) [NP32, synthetic peptide of H3N2 influenza A NP protein, amino acid position 229-246]	8
PIYRRVDGKWMRELVLY [NP14]	4
SNLNDATYQRTRALVR (Influenza A virus) [NP20, synthetic peptide of H3N2 influenza A NP protein, amino acid position 141-156]	8
TFSVQRSLPFEKSTIMAA [NP58]	4
GQTSVQPTFSVQRNLPF [NP57]	4
IKHENRMVLASTTAKAM (Influenza A virus) [Peptide M25, synthetic peptide of H3N2 influenza A M protein, amino acid position 173-189]	4
TYQRTRAVLRTGMDPRM (TYQRTRALVRTGMDPRM; Influenza A virus) [NP21, synthetic peptide of H3N2 influenza A NP protein, amino acid position 147-163]	8
KLSDHEGRLIQNSLTIEK [NP08]	4
GKWMRELVLYDKEEIRRI [NP15]	4
EIRASVGKMIDGIGRFYI [NP05]	4
